This document collects IC50 values reported for GRK5 (Homo sapiens, UniProt P34947).

Below: 5 compounds and their reported IC50.
compound	IC50
COc1ccc([C@@H](C)NC(=O)/C(C#N)=C/c2c[nH]c3ncc(-c4ccc(OCCCN(C)C)cc4)cc23)cc1OC	≤ 50 nM
CC[C@H](C)Oc1cnc2[nH]cc(/C=C(\C#N)C(=O)N[C@H](C)c3ccc(OC)c(OC)c3)c2c1	≤ 50 nM
COc1ccc([C@@H](C)NC(=O)/C(C#N)=C/c2c[nH]c3ncc(-c4ccc(F)cc4OC)cc23)cc1OC	100 to 500 nM
COc1ccc([C@@H](C)NC(=O)/C=C/c2c[nH]c3ncc(-c4cccc(OCCCN(C)C)c4)cc23)cc1OC	≤ 50 nM
CC[C@@H](NC(=O)/C(C#N)=C/c1c[nH]c2ncc(Cl)cc12)c1ccccc1	100 to 500 nM

Return reported IC50; argument: CCN(CC)CCC(NC(=O)/C(C#N)=C/c1c[nH]c2ncccc12)c1ccccc1 (stereo not shown)
100 to 500 nM

Now try "COc1ccc([C@@H](C)NC(=O)/C(C#N)=C/c2c[nH]c3ncc(-c4cnn(C)c4)cc23)cc1OC" .
≤ 50 nM

* * *

This document collects pIC50 values reported for UniProt P34947.
pIC50: −log10 of the molar value.

compound	test_readout	experimental_result
COc1ccc([C@@H](C)NC(=O)/C(C#N)=C/c2c[nH]c3ncc(-c4ccc(N5CCN(C)CC5)cc4)c(C)c23)cc1OC [Example 244]	pIC50	6.00 to 6.30
COc1cc(C(C)NC(=O)/C(C#N)=C/c2c[nH]c3ncc(-c4cnn(C)c4)cc23)ccc1[S+](C)[O-] (stereo not shown) [Example 256]	pIC50	7.00 to 7.30

Return reported pIC50; argument: C[C@@H](NC(=O)/C(C#N)=C/c1c[nH]c2ncc(-c3cnn(C)c3)cc12)c1ccccc1 [Example 91]
≥ 7.30

Now try CC(NC(=O)/C=C/c1c[nH]c2ncccc12)c1ccc(F)cc1 (stereo not shown) [Example 10] .
5.00 to 6.00

* * *

This document collects IC50 values reported for GRK5 (Homo sapiens).

molecule	IC50
COc1ccc([C@@H](C)NC(=O)/C(C#N)=C/c2c[nH]c3ncc(-c4cnn(CC(C)O)c4)cc23)cc1OC (some centres unmarked)	≤ 50 nM
COc1ccc([C@@H](C)NC(=O)/C(C#N)=C/c2c[nH]c3ncc(-c4cccc(NS(C)(=O)=O)c4)cc23)cc1OC	≤ 50 nM
N#C/C(=C\c1c[nH]c2ncc(Cl)cc12)C(=O)NCc1ccccc1	1000 to 10000 nM

// fetch GRK5 (Homo sapiens) IC50 for "CNS(=O)(=O)c1ccccc1CNC(=O)/C(C#N)=C/c1c[nH]c2ncccc12"
100 to 500 nM

Now try "N#C/C(=C\c1c[nH]c2ncccc12)C(=O)NCc1ccc(C#N)cc1" .
1000 to 10000 nM

* * *

Protein target, amino acids: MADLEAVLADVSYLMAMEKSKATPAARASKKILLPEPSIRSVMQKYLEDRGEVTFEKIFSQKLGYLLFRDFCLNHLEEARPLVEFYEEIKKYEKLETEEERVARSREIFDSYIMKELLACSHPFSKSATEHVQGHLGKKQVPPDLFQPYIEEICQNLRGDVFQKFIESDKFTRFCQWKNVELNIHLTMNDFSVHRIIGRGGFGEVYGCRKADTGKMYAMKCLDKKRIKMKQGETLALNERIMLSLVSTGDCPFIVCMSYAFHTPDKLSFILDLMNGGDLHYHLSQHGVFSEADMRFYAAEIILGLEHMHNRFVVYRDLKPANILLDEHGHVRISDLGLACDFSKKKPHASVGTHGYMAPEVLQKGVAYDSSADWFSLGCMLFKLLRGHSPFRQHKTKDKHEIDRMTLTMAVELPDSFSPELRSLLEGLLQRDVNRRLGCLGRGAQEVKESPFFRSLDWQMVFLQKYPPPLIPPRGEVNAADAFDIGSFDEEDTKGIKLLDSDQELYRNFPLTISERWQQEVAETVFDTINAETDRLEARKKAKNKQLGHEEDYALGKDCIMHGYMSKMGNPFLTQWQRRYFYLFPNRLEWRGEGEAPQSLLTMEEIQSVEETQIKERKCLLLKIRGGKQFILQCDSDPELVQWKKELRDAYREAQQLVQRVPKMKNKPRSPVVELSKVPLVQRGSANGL
The following molecules are shown together with reported IC50 values.

Below: 5 molecules and their reported IC50.
molecule	IC50
COc1ccc([C@@H](C)NC(=O)/C(C#N)=C/c2c[nH]c3ncc(-c4ccncc4)cc23)cc1OC [Example 143]	1 to 10 µM
COc1ccc([C@@H](C)NC(=O)/C(C#N)=C/c2c[nH]c3ncc(-c4cccc(S(=O)(=O)N(C)C)c4)cc23)cc1OC [Example 149]	1 to 10 µM
COc1ccc([C@@H](C)NC(=O)/C=C/c2c[nH]c3ncc(-c4cccc(C(N)=O)c4)cc23)cc1OC [Example 189]	1 to 10 µM
COc1ccc([C@@H](C)NC(=O)/C=C/c2c[nH]c3ncc(-c4cnn(C)c4)cc23)cc1OC [Example 204]	1 to 10 µM
COc1ccc([C@@H](C)NC(=O)/C(C#N)=C/c2c[nH]c3ncc(-c4ccc5ccccc5c4)cc23)cc1OC [Example 144]	> 10 µM

Return reported IC50; argument: COc1ccc([C@@H](C)NC(=O)/C(C#N)=C/c2c[nH]c3ncc(-c4cc(F)cc(F)c4)cc23)cc1OC [Example 131]
1 to 10 µM

Now try COc1ccc([C@@H](C)NC(=O)/C(C#N)=C/c2c[nH]c3ncc(-c4cccc(NS(C)(=O)=O)c4)cc23)cc1OC [Example 151] .
> 10 µM
